Values from patent US20230416232A1

Would you mind telling me the reported GI50 of each entry?
# target-or-test-system: EGFR(D770_N771insSVD) expressing Ba/F3 stable cell line (Homo sapiens, UniProt P00533, DUP768-770, cells depend on it)
# Sequence (P00533 with tags, fused parts or gaps DUP768-770): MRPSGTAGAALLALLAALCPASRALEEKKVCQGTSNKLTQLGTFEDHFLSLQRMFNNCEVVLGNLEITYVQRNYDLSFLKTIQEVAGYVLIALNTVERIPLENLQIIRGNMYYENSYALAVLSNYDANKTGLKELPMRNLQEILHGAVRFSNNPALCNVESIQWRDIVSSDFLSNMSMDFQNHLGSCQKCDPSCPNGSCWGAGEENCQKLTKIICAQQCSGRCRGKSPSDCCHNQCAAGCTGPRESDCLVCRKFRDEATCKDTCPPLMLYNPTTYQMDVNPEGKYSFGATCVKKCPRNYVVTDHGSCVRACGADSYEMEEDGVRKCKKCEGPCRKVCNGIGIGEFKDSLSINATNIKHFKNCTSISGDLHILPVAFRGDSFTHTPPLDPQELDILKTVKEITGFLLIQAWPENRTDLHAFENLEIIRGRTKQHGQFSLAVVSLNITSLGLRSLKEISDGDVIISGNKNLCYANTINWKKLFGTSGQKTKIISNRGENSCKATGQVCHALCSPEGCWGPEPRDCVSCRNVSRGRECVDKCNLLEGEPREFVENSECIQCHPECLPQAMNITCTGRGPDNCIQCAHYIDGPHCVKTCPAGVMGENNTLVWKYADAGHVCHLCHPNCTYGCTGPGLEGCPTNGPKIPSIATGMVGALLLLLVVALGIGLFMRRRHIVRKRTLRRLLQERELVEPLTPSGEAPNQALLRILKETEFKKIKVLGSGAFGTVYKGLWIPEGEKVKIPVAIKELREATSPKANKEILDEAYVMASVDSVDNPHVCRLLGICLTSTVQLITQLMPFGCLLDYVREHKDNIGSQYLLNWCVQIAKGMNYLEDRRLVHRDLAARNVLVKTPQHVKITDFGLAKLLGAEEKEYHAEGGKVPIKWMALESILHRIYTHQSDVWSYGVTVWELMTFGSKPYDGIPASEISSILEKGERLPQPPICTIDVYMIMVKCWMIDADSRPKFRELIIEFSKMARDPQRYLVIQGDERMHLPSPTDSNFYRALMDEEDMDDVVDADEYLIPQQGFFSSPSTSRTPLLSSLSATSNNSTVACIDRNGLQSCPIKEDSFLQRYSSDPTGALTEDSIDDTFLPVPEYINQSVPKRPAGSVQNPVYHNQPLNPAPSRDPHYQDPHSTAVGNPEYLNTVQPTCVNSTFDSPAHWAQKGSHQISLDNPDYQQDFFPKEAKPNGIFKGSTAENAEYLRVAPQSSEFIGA
# experiment-notes: Cellular proliferation (Alamar Blue) assay, EGFR(D770_N771insSVD) Ba/F3
# Type: cell-based
# condition-parameters: 72 hr, read-out: D770 IC50
One number for each entry, in nM.

Worked cases, GI50 given:
> print(dat)
                                   compound  reported.endpoint  obs.value
1  C=CC(=O)Nc1ccc(F)c(Nc2nc(Nc3cn(C)nc3Cl)ncc2-c2cc(F)cc(F)c2)c1 [Compound 104]               GI50         34
2  C=CC(=O)Nc1ccc(F)c(Nc2nc(Nc3cnn(C)c3)ncc2-c2ccc(F)cc2Cl)c1 [Compound 12]               GI50        363

For each of the compounds below, state GI50.
1. C=CC(=O)Nc1ccc(F)c(Nc2nc(Nc3cnn(C)c3)ncc2-c2cc(F)cc(C(F)(F)F)c2)c1 [Compound 27]
2. C=CC(=O)Nc1ccc(F)c(Nc2nc(Nc3cnn(C)c3)ncc2-c2cc(Cl)ccc2OC)c1 [Compound 23]

1. 35
2. 2730

---

# target-or-test-system: EGFR (A767_dupASV) expressing Ba/F3 stable cell line (Homo sapiens, UniProt P00533, DUP767-769, cells depend on it)
# Sequence (P00533 with tags, fused parts or gaps DUP767-769): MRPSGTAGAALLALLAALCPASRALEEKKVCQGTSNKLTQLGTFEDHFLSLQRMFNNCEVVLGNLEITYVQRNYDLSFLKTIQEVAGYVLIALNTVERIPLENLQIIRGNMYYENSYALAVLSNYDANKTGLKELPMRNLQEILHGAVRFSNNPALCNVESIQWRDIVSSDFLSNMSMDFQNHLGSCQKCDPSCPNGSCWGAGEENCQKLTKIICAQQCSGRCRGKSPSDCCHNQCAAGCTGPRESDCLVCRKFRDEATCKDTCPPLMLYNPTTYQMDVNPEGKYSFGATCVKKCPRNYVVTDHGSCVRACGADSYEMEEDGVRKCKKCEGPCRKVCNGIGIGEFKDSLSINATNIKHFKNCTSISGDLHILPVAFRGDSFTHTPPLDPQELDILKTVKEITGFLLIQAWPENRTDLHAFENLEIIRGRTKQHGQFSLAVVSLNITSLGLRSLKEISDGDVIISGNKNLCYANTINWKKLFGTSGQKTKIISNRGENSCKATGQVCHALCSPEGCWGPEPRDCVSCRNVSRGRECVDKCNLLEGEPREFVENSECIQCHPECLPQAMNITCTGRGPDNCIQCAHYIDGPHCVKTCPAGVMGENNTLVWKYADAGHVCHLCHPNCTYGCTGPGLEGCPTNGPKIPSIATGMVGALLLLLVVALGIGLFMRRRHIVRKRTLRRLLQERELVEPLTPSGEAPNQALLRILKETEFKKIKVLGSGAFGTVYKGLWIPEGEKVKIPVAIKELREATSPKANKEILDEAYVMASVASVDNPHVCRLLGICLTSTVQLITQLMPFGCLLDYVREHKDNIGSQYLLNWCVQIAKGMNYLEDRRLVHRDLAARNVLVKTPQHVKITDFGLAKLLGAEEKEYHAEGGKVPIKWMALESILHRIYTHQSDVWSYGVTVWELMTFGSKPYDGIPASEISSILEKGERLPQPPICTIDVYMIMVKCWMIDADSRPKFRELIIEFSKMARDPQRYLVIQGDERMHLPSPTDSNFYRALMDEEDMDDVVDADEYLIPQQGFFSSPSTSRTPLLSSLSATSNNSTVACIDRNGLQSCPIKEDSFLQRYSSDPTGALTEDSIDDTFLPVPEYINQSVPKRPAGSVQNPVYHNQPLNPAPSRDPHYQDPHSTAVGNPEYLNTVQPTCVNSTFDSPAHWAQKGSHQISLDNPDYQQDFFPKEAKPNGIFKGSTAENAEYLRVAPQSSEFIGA
# experiment-notes: Cellular proliferation (Alamar Blue) assay, EGFR (A767_dupASV) Ba/F3
# Type: cell-based
# condition-parameters: 72 hr, read-out: A767 IC50
reported-endpoint: GI50 (nM)
Give bare numbers, in nM.

Worked cases, GI50 given:
> print(dat)
                                   molecule  obs.value
1  C=CC(=O)Nc1ccc(F)c(Oc2nc(Nc3cnn(C)c3)ncc2-c2ccc(Cl)c(F)c2)c1 [Compound 98]        104
2  [2H]c1c(F)cc(-c2cnc(Nc3cnn(C)c3)nc2Nc2cc(NC(=O)C=C)ccc2F)cc1F [Compound 157]         35
3  C=CC(=O)Nc1ccc(F)c(Nc2nc(Nc3cnn(C)c3)ncc2-c2ccc3c(c2)OCC3)c1 [Compound 162]        116
4  C=CC(=O)Nc1cc(F)cc(Nc2nc(Nc3cnn(C)c3)ncc2-c2ccc(Br)c(F)c2)c1 [Compound 97]         24

Consider the molecule C=CC(=O)Nc1ccc(F)c(Nc2nc(Nc3cnn(C)c3)ncc2-c2ccc(C3=CCN(C)CC3)c(F)c2)c1 [Compound 55] and give its measured GI50.
800

---

# target-or-test-system: HER2 (A775_G776insYVMA) expressing Ba/F3 stable cell line (Homo sapiens, UniProt P04626, DUP772-775, cells depend on it)
# Sequence (P04626 with tags, fused parts or gaps DUP772-775): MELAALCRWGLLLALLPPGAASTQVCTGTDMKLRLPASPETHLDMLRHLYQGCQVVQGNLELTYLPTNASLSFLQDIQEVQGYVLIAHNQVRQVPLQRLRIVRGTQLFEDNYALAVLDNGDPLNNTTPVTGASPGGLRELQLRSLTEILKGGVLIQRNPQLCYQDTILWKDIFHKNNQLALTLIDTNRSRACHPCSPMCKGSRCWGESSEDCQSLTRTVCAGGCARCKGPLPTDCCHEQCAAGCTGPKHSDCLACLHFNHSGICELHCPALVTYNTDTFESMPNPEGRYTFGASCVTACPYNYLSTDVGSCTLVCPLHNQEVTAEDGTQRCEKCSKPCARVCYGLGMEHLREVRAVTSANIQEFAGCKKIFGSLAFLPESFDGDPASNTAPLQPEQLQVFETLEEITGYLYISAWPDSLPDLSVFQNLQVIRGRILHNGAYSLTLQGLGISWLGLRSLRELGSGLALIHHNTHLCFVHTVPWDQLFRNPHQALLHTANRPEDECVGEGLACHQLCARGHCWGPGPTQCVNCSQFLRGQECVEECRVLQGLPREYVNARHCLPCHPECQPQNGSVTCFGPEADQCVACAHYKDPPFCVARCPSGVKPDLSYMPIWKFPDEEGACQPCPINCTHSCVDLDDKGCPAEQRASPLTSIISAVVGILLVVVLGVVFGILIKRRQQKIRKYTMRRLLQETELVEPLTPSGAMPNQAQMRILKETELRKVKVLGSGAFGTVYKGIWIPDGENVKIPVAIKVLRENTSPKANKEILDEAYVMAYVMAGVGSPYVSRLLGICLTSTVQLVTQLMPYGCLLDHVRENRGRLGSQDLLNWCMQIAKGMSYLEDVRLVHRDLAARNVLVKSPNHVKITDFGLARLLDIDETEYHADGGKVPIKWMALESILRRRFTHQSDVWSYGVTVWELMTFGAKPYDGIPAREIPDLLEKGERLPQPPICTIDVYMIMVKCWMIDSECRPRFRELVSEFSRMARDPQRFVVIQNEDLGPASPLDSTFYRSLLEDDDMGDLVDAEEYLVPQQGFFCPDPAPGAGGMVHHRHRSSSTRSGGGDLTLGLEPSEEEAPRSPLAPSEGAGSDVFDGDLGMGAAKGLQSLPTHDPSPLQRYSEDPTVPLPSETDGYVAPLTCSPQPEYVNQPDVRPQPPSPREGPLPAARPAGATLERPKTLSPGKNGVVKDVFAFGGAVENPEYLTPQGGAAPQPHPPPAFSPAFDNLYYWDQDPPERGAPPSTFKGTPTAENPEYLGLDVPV
# experiment-notes: Cellular proliferation (Alamar Blue) assay, HER2 (A775_G776insYVMA) Ba/F3
# Type: cell-based
# condition-parameters: HER2 (A775_G776insYVMA) Ba/F3 cells; 72 hr; Alamar Blue; read-out: YVMA IC50
reported-endpoint: GI50 (nM)
Numbers only, in nM.

Worked cases, GI50 given:
> print(dat)
                                   compound  reported.endpoint  unit.string  obs.value
1  C=CC(=O)Nc1ccc(F)c(Nc2nc(Nc3cnn(C)c3)ncc2-c2cnc(Cl)c(C)c2)c1 [Compound 48]               GI50           nM         36
2  [2H]c1c(F)cc(-c2cnc(Nc3cnn(C)c3)nc2Nc2cc(NC(=O)C=C)ccc2F)cc1F [Compound 157]               GI50           nM        151
3  C=CC(=O)Nc1ccc(F)c(Nc2nc(Nc3cnn(C)c3)ncc2-c2cc(F)cc(F)c2)c1 [Compound 26]               GI50           nM        112
4  C=CC(=O)Nc1ccc(F)c(Nc2nc(Nc3cnn(C)c3)ncc2-c2ccc3c(c2)OCCO3)c1 [Compound 111]               GI50           nM       1080

We next turn to a different compound, shown below.
Consider the compound C=CC(=O)Nc1ccc(F)c(Nc2nc(Nc3cnn(CCN(C)C)c3)ncc2-c2ccc(Br)c(Cl)c2)c1 [Compound 89] and give its measured GI50.
123

---

# target-or-test-system: EGFR (H773insNPH) expressing Ba/F3 stable cell line (Homo sapiens, UniProt P00533, DUP771-773, cells depend on it)
# Sequence (P00533 with tags, fused parts or gaps DUP771-773): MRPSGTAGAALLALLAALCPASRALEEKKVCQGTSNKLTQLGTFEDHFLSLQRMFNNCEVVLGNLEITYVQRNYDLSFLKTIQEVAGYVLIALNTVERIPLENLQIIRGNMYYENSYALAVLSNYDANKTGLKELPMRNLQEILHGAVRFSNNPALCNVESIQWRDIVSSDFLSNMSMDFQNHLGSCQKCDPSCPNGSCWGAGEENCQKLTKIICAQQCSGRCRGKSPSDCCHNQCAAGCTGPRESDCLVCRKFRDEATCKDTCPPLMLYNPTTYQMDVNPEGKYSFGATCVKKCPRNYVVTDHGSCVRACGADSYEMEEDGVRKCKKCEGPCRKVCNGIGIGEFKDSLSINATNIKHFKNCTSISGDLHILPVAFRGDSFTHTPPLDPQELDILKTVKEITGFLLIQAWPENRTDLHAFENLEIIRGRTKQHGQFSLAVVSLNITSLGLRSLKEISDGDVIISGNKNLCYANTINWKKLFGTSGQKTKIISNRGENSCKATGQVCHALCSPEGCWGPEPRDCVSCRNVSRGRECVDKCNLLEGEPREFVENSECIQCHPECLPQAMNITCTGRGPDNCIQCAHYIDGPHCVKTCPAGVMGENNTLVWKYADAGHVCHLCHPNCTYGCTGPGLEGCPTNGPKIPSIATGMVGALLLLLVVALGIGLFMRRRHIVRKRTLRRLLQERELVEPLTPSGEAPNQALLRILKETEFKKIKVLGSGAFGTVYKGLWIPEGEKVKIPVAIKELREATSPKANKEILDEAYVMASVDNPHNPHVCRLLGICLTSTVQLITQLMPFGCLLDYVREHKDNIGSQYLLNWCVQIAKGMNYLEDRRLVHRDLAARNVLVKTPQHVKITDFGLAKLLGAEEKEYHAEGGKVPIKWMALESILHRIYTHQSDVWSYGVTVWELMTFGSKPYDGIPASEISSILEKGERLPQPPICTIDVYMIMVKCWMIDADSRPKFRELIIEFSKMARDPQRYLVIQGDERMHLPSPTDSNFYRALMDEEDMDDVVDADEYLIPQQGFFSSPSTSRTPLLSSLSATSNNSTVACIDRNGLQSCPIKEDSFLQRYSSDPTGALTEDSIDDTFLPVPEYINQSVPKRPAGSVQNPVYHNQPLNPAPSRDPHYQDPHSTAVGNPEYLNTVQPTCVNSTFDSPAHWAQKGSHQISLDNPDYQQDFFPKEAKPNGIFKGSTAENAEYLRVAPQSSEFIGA
# experiment-notes: Cellular proliferation (Alamar Blue) assay, EGFR (H773insNPH) Ba/F3
# Assay type: cell-based
# condition-parameters: 72 hr, read-out: NPH IC50
Would you mind telling me the reported GI50 of each entry?
# include the unit after the value

> print(dat)
                              smiles.record  reported.endpoint  obs.value
1  C=CC(=O)Nc1ccc(F)c(Nc2nc(Nc3cnn(C)c3)ncc2-c2cc(F)ccc2Cl)c1               GI50   0.124 µM

For each of the molecules below, state GI50.
1. C=CC(=O)Nc1ccc(F)c(Nc2nc(Nc3cnn(C)c3)ncc2-c2ccc(OC)cc2F)c1
2. C=CC(=O)Nc1ccc(F)c(Nc2nc(Nc3cnn(C)c3)ncc2-c2ccc(OC)c(Cl)c2)c1

1: 0.097 µM; 2: 0.103 µM

Consider the molecule `C=CC(=O)Nc1ccc(F)c(Nc2nc(Nc3cnn(C)c3)ncc2-c2cc(C)cc(F)c2)c1` and give its measured GI50.
0.095 µM

---

# target-or-test-system: EGFR (H773insNPH) expressing Ba/F3 stable cell line (Homo sapiens, UniProt P00533, DUP771-773, cells depend on it)
# experiment-notes: Cellular proliferation (Alamar Blue) assay, EGFR (H773insNPH) Ba/F3
# Assay type: cell-based
# condition-parameters: 72 hr, read-out: NPH IC50
Under this convention, satisfied denotes GI50 strictly below 80 nM and not satisfied denotes GI50 at or above 80 nM.

> print(dat)
                                   compound  assigned.category
1  C=CC(=O)Nc1ccc(F)c(Nc2nc(Nc3cnn(C)c3)ncc2-c2ccc(CN(C)C)c(F)c2)c1 [Compound 60]      not satisfied
2  C=CC(=O)Nc1ccc(F)c(Nc2nc(Nc3cnn(C)c3)ncc2-c2ccc(C3=CCN(C)CC3)c(F)c2)c1 [Compound 55]      not satisfied
3  C=CC(=O)Nc1ccc(F)c(Nc2nc(Nc3cnn(C)c3)ncc2-c2ccc(OC)c(F)c2)c1 [Compound 1]          satisfied
4  C=CC(=O)Nc1ccc(F)c(Nc2nc(Nc3cnn(C)c3)ncc2-c2ccc(OC(F)(F)F)c(F)c2)c1 [Compound 14]          satisfied
5  C=CC(=O)Nc1cccc(Nc2nc(Nc3cnn(C)c3)ncc2-c2ccc(OC)c(F)c2)c1 [Compound 69]          satisfied

Does C=CC(=O)Nc1ccc(F)c(Nc2nc(Nc3cnn(C)c3)ncc2-c2ccc(F)c(C(F)(F)F)c2)c1 [Compound 25] have GI50 strictly under 80 nM?
not satisfied

Note, next up: C=CC(=O)Nc1ccc(F)c(Nc2nc(Nc3cn(C)nc3Cl)ncc2-c2ccc(Br)c(F)c2)c1 [Compound 92]
satisfied

Note, next up: C=CC(=O)Nc1ccc(F)c(Nc2nc(Nc3cnn(C)c3)ncc2-c2ccc(Br)c(F)c2)c1 [Compound 87]
not satisfied

Note, next up: C=CC(=O)Nc1ccc(F)c(Nc2nc(Nc3cnn(C)c3)ncc2-c2ccc(C(F)(F)F)c(F)c2)c1 [Compound 35]
not satisfied

Note, next up: C=CC(=O)Nc1ccc(F)c(Nc2nc(Nc3cnn(C)c3)ncc2-c2cc(F)cc(C(F)F)c2)c1 [Compound 15]
not satisfied

Note, next up: C=CC(=O)Nc1ccc(F)c(Nc2nc(Nc3cnn(C)c3)ncc2-c2cc(F)cc(OC)c2)c1 [Compound 65]
not satisfied

Note, next up: C=CC(=O)Nc1ccc(F)c(Nc2nc(Nc3cnn(C)c3)ncc2-c2cnc(Cl)c(Cl)c2)c1 [Compound 17]
not satisfied

---

# target-or-test-system: EGFR(D770_N771insSVD) expressing Ba/F3 stable cell line (Homo sapiens, UniProt P00533, DUP768-770, cells depend on it)
# experiment-notes: Cellular proliferation (Alamar Blue) assay, EGFR(D770_N771insSVD) Ba/F3
# Format: cell-based
# condition-parameters: 72 hr, read-out: D770 IC50
# Procedure: Cell line details: • 1. EGFR(D770_N771insSVD) expressing Ba/F3 stable cell line • 2. EGFR (A767_dupASV) expressing Ba/F3 stable cell line • 3. A431 cells • 4. EGFR (H773insNPH) expressing Ba/F3 stable cell line • 5. HER2 (A775_G776insYVMA) expressing Ba/F3 stable cell line • 1. Seed cells at 5000 for A431 and 15,000 cells for Ba/F3 in 100 μL/well in complete media (for A431: DMEM with 10% FBS and for Ba/F3 cells: RPMI with 10% FBS) in 96-well tissue culture plate. […]
Counter-ions that a name gives are not always drawn.
Would you mind telling me the reported GI50 of each entry?
One number for each entry, in nM.

Worked cases, GI50 given:
> print(dat)
                                   compound  unit.string  obs.value
1  C=CC(=O)Nc1ccc(F)c(Nc2nc(Nc3cnn(C)c3)ncc2-c2cc(F)cc(Br)c2)c1           nM         53
2  C=CC(=O)Nc1cccc(Nc2nc(Nc3cnn(C)c3)ncc2-c2cc(F)c(Br)c(F)c2)c1           nM         11
3  C=CC(=O)Nc1ccc(F)c(Nc2nc(Nc3cnn(C)c3)ncc2-c2cc(F)c(F)c(OC(F)F)c2)c1           nM         68
4  C=CC(=O)Nc1ccc(F)c(Nc2nc(Nc3cnn(C)c3)ncc2-c2ccc(F)c(Br)c2)c1 [Compound 18, trifluoroacetate]           nM        113
5  C=CC(=O)Nc1ccc(F)c(Nc2nc(Nc3cnn(C4CCOC4)c3)ncc2-c2ccc(Br)c(F)c2)c1 (stereo not drawn)           nM         35
6  C=CC(=O)Nc1ccc(F)c(Oc2nc(Nc3cnn(C)c3)ncc2-c2ccc(Cl)c(F)c2)c1           nM         36

For each of the compounds below, state GI50.
1. C=CC(=O)Nc1ccc(F)c(Nc2nc(Nc3cnn(C)c3)ncc2-c2ccc(N3CC(N(C)C)C3)c(F)c2)c1
2. C=CC(=O)Nc1ccc(F)c(Nc2nc(Nc3cnn(CCO)c3)ncc2-c2ccc(F)c(Cl)c2)c1
3. C=CC(=O)Nc1ccc(F)c(Nc2nc(Nc3cnn(C)c3)ncc2-c2cc(F)c(F)c(OC)c2)c1
4. C=CC(=O)Nc1cc(Cl)cc(Nc2nc(Nc3cnn(C)c3)ncc2-c2ccc(Br)c(F)c2)c1
5. C=CC(=O)Nc1ccc(F)c(Nc2nc(Nc3cnn(C)c3)ncc2-c2ccc(N3CCCC3)c(F)c2)c1
6. C=CC(=O)Nc1ccc(F)c(Nc2nc(Nc3cn(C)nc3Cl)ncc2-c2cc(F)cc(C(F)F)c2)c1
7. C=CC(=O)Nc1cccc(Nc2nc(Nc3cnn(C)c3)ncc2-c2ccc(F)c(Cl)c2)c1
8. C=CC(=O)Nc1ccc(F)c(Nc2nc(Nc3cnn(C)c3)ncc2-c2ccc(N3CCOCC3)c(F)c2)c1

1. 1010
2. 75
3. 40
4. 24
5. 340
6. 39
7. 38
8. 220

For each of the compounds below, state GI50.
1. C=CC(=O)Nc1ccc(F)c(Nc2nc(Nc3cnn(C)c3)ncc2-c2ccc(N3CCN(C)CC3)c(F)c2)c1
2. C=CC(=O)Nc1ccc(F)c(Nc2nc(Nc3cnn(C4COC4)c3)ncc2-c2ccc(F)c(Cl)c2)c1

1. 906
2. 104

For each of the compounds below, state GI50.
1. C=CC(=O)Nc1ccc(F)c(Nc2nc(Nc3cnn(C)c3)ncc2-c2ccc(N3CCCOCC3)c(F)c2)c1
2. C=CC(=O)Nc1ccc(F)c(Nc2nc(Nc3cnn(C)c3)ncc2-c2cnc(Cl)c(C(F)(F)F)c2)c1
3. C=CC(=O)Nc1ccc(F)c(Nc2nc(Nc3cnn(C)c3)ncc2-c2cc(F)c(C(F)(F)F)c(OC)c2)c1
4. C=CC(=O)Nc1ccc(F)c(Nc2nc(Nc3cnn(C)c3)ncc2-c2cc(F)cc(OCC(F)(F)F)c2)c1
5. C=CC(=O)Nc1cccc(Nc2nc(Nc3cnn(C)c3)ncc2-c2cc(F)cc(Cl)c2)c1
6. C=CC(=O)Nc1cccc(Nc2nc(Nc3cnn(C)c3)ncc2-c2ccc(F)c(F)c2)c1

[122, 24, 251, 1130, 15, 36]

For each of the compounds below, state GI50.
1. C=CC(=O)Nc1ccc(F)c(Nc2nc(Nc3cnn(C)c3)ncc2-c2cnc(C)c(Cl)c2)c1
2. C=CC(=O)Nc1cccc(Nc2nc(Nc3cnn(C)c3)ncc2-c2ccc(Cl)c(F)c2)c1
3. C=CC(=O)Nc1ccc(F)c(Nc2nc(Nc3cnn(C)c3)ncc2-c2cc(F)c(Cl)c(F)c2)c1
4. C=CC(=O)Nc1ccc(F)c(Nc2nc(Nc3cnn(C4COC4)c3)ncc2-c2ccc(Cl)c(Cl)c2)c1
5. C=CC(=O)Nc1ccc(F)c(Nc2nc(Nc3cnn(C)c3)ncc2-c2cc(C)cc(F)c2)c1
6. C=CC(=O)Nc1ccc(F)c(Nc2nc(Nc3cn(C)nc3Cl)ncc2-c2ccc(Br)c(F)c2)c1
7. CN(C)C/C=C/C(=O)Nc1ccc(F)c(Nc2nc(Nc3cnn(C)c3)ncc2-c2cc(F)cc(F)c2)c1 [Compound 117]

1: 17; 2: 14; 3: 11; 4: 104; 5: 61; 6: 74; 7: 135
